OD450 values, listed per item
- target_or_system: T1, human MSLN-R1-his protein (human, UniProt Q13421 296-390)
- T1 construct: Made in HEK293E cells, purified on nickel column; also called hMSLN-R1-his; human MSLN-R1 protein; not shown: His tag
- T1 chain: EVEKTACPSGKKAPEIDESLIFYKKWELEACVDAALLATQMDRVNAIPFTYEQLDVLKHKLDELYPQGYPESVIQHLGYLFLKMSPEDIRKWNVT
- test_method_notes: ELISA, coated antigen, antibody 0.0002 nM
// no unit string in output, number only

Ask: Please look at this binder and report its OD450: S009-F7.65.13 chimeric antibody (antibody, human IgG1, kappa, V domains shown, Human-murine chimeric antibody, human IgG1/kappa constant regions) VH: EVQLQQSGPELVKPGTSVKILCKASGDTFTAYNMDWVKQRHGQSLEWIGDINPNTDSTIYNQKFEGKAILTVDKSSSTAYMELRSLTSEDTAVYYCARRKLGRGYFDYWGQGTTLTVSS VL: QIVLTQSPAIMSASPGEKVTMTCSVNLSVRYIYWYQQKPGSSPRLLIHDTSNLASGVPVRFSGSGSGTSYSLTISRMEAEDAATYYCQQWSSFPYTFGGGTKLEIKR
Reply: 0.05

Ask: Check the records and state OD450 for S009-F7.2.3 chimeric antibody (antibody, human IgG1, kappa, V domains shown, Human-murine chimeric antibody, human IgG1/kappa constant regions) VH: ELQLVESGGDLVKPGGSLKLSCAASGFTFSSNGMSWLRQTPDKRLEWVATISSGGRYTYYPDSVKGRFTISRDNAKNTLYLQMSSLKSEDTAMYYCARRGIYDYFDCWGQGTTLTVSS VL: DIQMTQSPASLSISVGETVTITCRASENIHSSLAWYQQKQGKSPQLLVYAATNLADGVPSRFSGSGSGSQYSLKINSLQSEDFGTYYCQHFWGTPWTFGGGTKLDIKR
Reply: 0.06

Further cases:
Ask: Let me know recorded OD450 for S009-F7.48.1 chimeric antibody (antibody, human IgG1, kappa, V domains shown, Human-murine chimeric antibody, human IgG1/kappa constant regions) VH: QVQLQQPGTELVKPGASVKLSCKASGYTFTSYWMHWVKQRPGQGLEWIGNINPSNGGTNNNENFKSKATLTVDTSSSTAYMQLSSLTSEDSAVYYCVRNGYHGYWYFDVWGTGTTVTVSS VL: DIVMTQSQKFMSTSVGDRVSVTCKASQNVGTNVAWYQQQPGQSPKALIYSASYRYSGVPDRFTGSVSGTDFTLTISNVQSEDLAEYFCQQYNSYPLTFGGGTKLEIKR , thanks.
Reply: 0.04

Values were extracted from patent US20250250357A1.
